tested_system: Gamma-secretase
experimental_protocol: Inhibition of gamma secretase in human SH-SY5Y cells by HTRF assay
Type: cell-based
Provide the reported pIC50 of each item.
Give bare numbers, as −log10 of the molar value.

Past entries and their recorded results:
[[record]]
mol_smiles = "Cn1nc(-c2ccc3c(c2)C[C@H]2CC[C@@H](C3)[C@]23CN(CC(F)(F)F)S(=O)(=O)N3)cc1-c1ccc(F)cc1F"
tested_system = "Gamma-secretase"
value_type = "pIC50"
endpoint_value = 10.22

[[record]]
mol_smiles = "Cn1nc(-c2ccc3c(c2)C[C@H]2CC[C@@H](C3)[C@]23CN(CC(F)(F)F)S(=O)(=O)N3)cc1-c1ccc(F)cc1"
tested_system = "Gamma-secretase"
value_type = "pIC50"
endpoint_value = 10.22

[[record]]
mol_smiles = "O=S1(=O)N[C@@]2(CN1CC(F)(F)F)[C@@H]1CC[C@H]2Cc2ccc(/C=C/CN3CCC(C(F)(F)F)CC3)cc2C1"
tested_system = "Gamma-secretase"
value_type = "pIC50"
endpoint_value = 9.62

[[record]]
mol_smiles = "Cn1nc(-c2ccc3c(c2)C[C@H]2CC[C@@H](C3)[C@]23CN(CC(F)(F)F)S(=O)(=O)N3)cc1-c1ccc(F)c(F)c1"
tested_system = "Gamma-secretase"
value_type = "pIC50"
endpoint_value = 10.22

[[record]]
mol_smiles = "O=S1(=O)N[C@@]2(CN1CC(F)(F)F)[C@@H]1CC[C@H]2Cc2ccc(-c3ncc(-c4ccc(F)cc4)s3)cc2C1"
tested_system = "Gamma-secretase"
value_type = "pIC50"
endpoint_value = 9.38


For the 2 compounds below, give their pIC50 values.
1. Cn1nc(-c2ccc3c(c2)C[C@H]2CC[C@@H](C3)[C@]23CN(CC(F)(F)F)S(=O)(=O)N3)cc1-c1ccc(Cl)cc1
2. O=S1(=O)N[C@@]2(CN1CC(F)(F)F)[C@@H]1CC[C@H]2Cc2ccc(-c3cn(-c4ccc(F)cc4F)cn3)cc2C1

Response:
1. 10.15
2. 10.22

* * *

tested_system: Gamma-secretase
experimental_protocol: Inhibition of gamma secretase in human SH-SY5Y cells by HTRF assay
Format: cell-based
Provide the reported pIC50 of each item.
Numbers only, as −log10 of the molar value.

Past entries and their recorded results:
[[record]]
molecule = "Cn1nc(-c2ccc3c(c2)C[C@H]2CC[C@@H](C3)[C@]23CN(CC(F)(F)F)S(=O)(=O)N3)cc1-c1cccc(F)c1 (racemic)"
value_type = "pIC50"
endpoint_value = 9.34

[[record]]
molecule = "Cn1nc(-c2ccc(F)cc2)cc1-c1ccc2c(c1)CC1CCC(C2)C12CN(CC(F)(F)F)S(=O)(=O)N2 (racemic)"
value_type = "pIC50"
endpoint_value = 8.78

[[record]]
molecule = "O=S1(=O)N[C@@]2(CN1CC(F)(F)F)[C@@H]1CC[C@H]2Cc2ccc(-c3cn(-c4ccc(F)cc4)cn3)cc2C1"
value_type = "pIC50"
endpoint_value = 10.52

[[record]]
molecule = "O=S1(=O)N[C@@]2(CN1CC(F)(F)F)[C@@H]1CC[C@H]2Cc2ccc(-c3cn(-c4ccc(F)c(F)c4)cn3)cc2C1"
value_type = "pIC50"
endpoint_value = 9.92

[[record]]
molecule = "Cn1nc(-c2ccc3c(c2)CC2CCC(C3)C23CN(CC(F)(F)F)S(=O)(=O)N3)cc1-c1ccccc1F (racemic)"
value_type = "pIC50"
endpoint_value = 9.68

[[record]]
molecule = "O=S1(=O)N[C@@]2(CN1CC(F)(F)F)[C@@H]1CC[C@H]2Cc2ccc(-c3cn(-c4cccc(F)c4)cn3)cc2C1"
value_type = "pIC50"
endpoint_value = 9.09


Prompt: Returns the measured pIC50 for the input molecule. Input: O=S1(=O)N[C@@]2(CN1CC(F)(F)F)[C@@H]1CC[C@H]2Cc2ccc(-c3cn(-c4ccc(Cl)cc4)cn3)cc2C1
Response: 10.10

* * *

experimental_protocol: Half life in rhesus monkey
Format: ADME, organism-based, Macaca mulatta
protocol_conditions: in vivo
value_type: half-life (h)
Numbers only, in h.

Prompt: Returns the measured half-life for the input compound. Input: Cn1nc(-c2ccc3c(c2)C[C@H]2CC[C@@H](C3)[C@]23CN(CC(F)(F)F)S(=O)(=O)N3)cc1-c1ccc(F)cc1
Response: 16

* * *

tested_system: Gamma-secretase
experimental_protocol: Inhibition of gamma secretase in human SH-SY5Y cells by HTRF assay
Sorting guide: entries reporting IC50 beneath 200 pM go in the label 1 pile, the rest go in the label 0 pile.

[[record]]
mol_smiles = "O=S1(=O)N[C@@]2(CN1CC(F)(F)F)[C@@H]1CC[C@H]2Cc2ccc(-c3cn(-c4ccc(Cl)c(Cl)c4)cn3)cc2C1"
answer_label = "label 0"


Prompt: Item Cn1nc(-c2ccc3c(c2)C[C@H]2CC[C@@H](C3)[C@]23CN(CC(F)(F)F)S(=O)(=O)N3)cc1-c1ccc(Cl)c(Cl)c1 : IC50 beneath 200 pM, strictly?
Response: label 0

Prompt: Item O=S1(=O)N[C@@]2(CN1CC(F)(F)F)[C@@H]1CC[C@H]2Cc2ccc(-c3cn(-c4ccccc4F)cn3)cc2C1 : IC50 beneath 200 pM, strictly?
Response: label 1

Prompt: Item O=S1(=O)N[C@@]2(CN1CC(F)(F)F)[C@@H]1CC[C@H]2Cc2ccc(-c3ncn(-c4ccc(F)cc4)n3)cc2C1 : IC50 beneath 200 pM, strictly?
Response: label 1

Prompt: Item O=S1(=O)N[C@@]2(CN1CC(F)(F)F)[C@@H]1CC[C@H]2Cc2ccc(-c3ncc(N4CCC(C(F)(F)F)CC4)s3)cc2C1 : IC50 beneath 200 pM, strictly?
Response: label 0

* * *

experimental_protocol: Half life in dog
Type: ADME, organism-based, Canis lupus familiaris
protocol_conditions: in vivo
value_type: half-life

Prompt: Returns the measured half-life for the input molecule. Input: Cn1nc(-c2ccc3c(c2)C[C@H]2CC[C@@H](C3)[C@]23CN(CC(F)(F)F)S(=O)(=O)N3)cc1-c1ccc(F)cc1
Response: > 10 h

* * *

experimental_protocol: Bioavailability in rat
Format: ADME, organism-based
protocol_conditions: in vivo
value_type: bioavailability (%)
One number for each entry, in %.

Prompt: Returns the measured bioavailability for the input compound. Input: Cn1nc(-c2ccc3c(c2)C[C@H]2CC[C@@H](C3)[C@]23CN(CC(F)(F)F)S(=O)(=O)N3)cc1-c1ccc(F)cc1
Response: 35
